- Tested on: Enterococcus sp.
- protocol: in vitro antibacterial evaluation, MIC by broth dilution
- Format: cell-based
- condition: broth dilution, 18 hours at 35° C.
Numbered stars: 1 amine (or outer) side, 2 acyl side, 3 side chain; on linkers, the order of the positions; unused ones are H or OH. Square brackets hold non-standard residues; d marks the D form. Peptide text beside a SMILES is read from it. * marks the point of attachment. ξ: configuration not given here. X1 = N=C1NCC(C(O)C(N[*:1])C(=O)[*:2])N1C1OC(CO)C(O)C(O)C1O; ξEnduracididine(βξ-OH,4'ξ) = N=C1NCC(C(O)C(N)C(=O)O)N1; X2 = OCC1OC(OC2C(CO)OC(*)C(O)C2O)C(O)C(O)C1O; Diphenylacetyl = O=C(C(c1ccccc1)c1ccccc1)*; ξPhe(βξ-Me) = CC(c1ccccc1)C(N)C(=O)O
molecules and their reported MIC Enterococcus faecalis (GC 4553)

>>> reported_result("CC(c1ccccc1)C1NC(=O)CNC(=O)C(COC(=O)C(c2ccccc2)c2ccccc2)NC(=O)C(C(O)C2CNC(=N)N2C2OC(CO)C(O)C(O)C2O)NC(=O)C(C(O)C2CNC(=N)N2)NC(=O)C(Cc2ccc(OC3OC(CO)C(OC4OC(CO)C(O)C(O)C4O)C(O)C3O)cc2)NC1=O (stereo not drawn) [Example 96a] (cyclo(G[ξPhe(βξ-Me)]Y(X2)[ξEnduracididine(βξ-OH,4'ξ)][X1]S(Diphenylacetyl)); configuration not given here)")
">128 µg/mL"
>>> reported_result("COc1ccc2cc(COC3C(CO)OC(OC4C(CO)OC(Oc5ccc(CC6NC(=O)C(C(C)c7ccccc7)NC(=O)CNC(=O)C(CO)NC(=O)C(C(O)C7CNC(=N)N7C7OC(CO)C(O)C(O)C7O)NC(=O)C(C(O)C7CNC(=N)N7)NC6=O)cc5)C(O)C4O)C(O)C3O)ccc2c1 (stereo not drawn) [Example 230a]")
"2 to 4 µg/mL"

# next molecule below
Report MIC Enterococcus faecalis (GC 4553) for CC(c1ccccc1)C1NC(=O)CNC(=O)C(CO)NC(=O)C(C(O)C2CN(c3nc4ccccc4s3)C(=N)N2C2OC(CO)C(O)C(O)C2O)NC(=O)C(C(O)C2CNC(=Nc3nc4ccccc4s3)N2)NC(=O)C(Cc2ccc(OC3OC(CO)C(OC4OC(CO)C(O)C(O)C4O)C(O)C3O)cc2)NC1=O (stereo not drawn) please.
>64 µg/mL

Hey, just so you know, these numbers are from patent US6914045B2.
